This section lists log10(IC50) readings for UniProt:P81908.
# log10 transformed; quantity=IC50; unit=nM

Request: Can you look up log10(IC50) on UniProt:P81908 for `COC(=O)[C@H](Cc1c[nH]c2ccccc12)NCCCCCNc1c2c(nc3ccccc13)CCCC2` ?
Result: 0.60

Request: Can you look up log10(IC50) on UniProt:P81908 for `CC(C)(C)OC(=O)N[C@@H](CCCCNC(=O)OCc1ccccc1)C(=O)NCCCNc1c2c(nc3ccccc13)CCCC2` ?
Result: -0.60

Request: Can you look up log10(IC50) on UniProt:P81908 for `N[C@@H](Cc1c[nH]c2ccccc12)C(=O)NCCCCCCNc1c2c(nc3ccccc13)CCCC2` ?
Result: 0.08

Request: Can you look up log10(IC50) on UniProt:P81908 for `N[C@@H](Cc1c[nH]c2ccccc12)C(=O)NCCCCNc1c2c(nc3ccccc13)CCCC2` ?
Result: 0.38

Request: Can you look up log10(IC50) on UniProt:P81908 for `COC(=O)[C@H](Cc1c[nH]c2ccccc12)NCCCCCCNc1c2c(nc3ccccc13)CCCC2` ?
Result: 0.45

Request: Can you look up log10(IC50) on UniProt:P81908 for `CC(C)(C)OC(=O)N[C@@H](Cc1cn(C(=O)OC(C)(C)C)cn1)C(=O)NCCCCNc1c2c(nc3ccccc13)CCCC2` ?
Result: -1.19

Request: Can you look up log10(IC50) on UniProt:P81908 for `COC(=O)[C@H](CCCCNC(=O)OCc1ccccc1)NCCCCCCNc1c2c(nc3ccccc13)CCCC2` ?
Result: -0.54

Request: Can you look up log10(IC50) on UniProt:P81908 for `c1ccc2c(NCCCCCNCCc3c[nH]cn3)c3c(nc2c1)CCCC3` ?
Result: 0.38

---

Biological target: Carbonic anhydrase 4 (Homo sapiens) (UniProt P22748)
Sequence (P22748 whole entry): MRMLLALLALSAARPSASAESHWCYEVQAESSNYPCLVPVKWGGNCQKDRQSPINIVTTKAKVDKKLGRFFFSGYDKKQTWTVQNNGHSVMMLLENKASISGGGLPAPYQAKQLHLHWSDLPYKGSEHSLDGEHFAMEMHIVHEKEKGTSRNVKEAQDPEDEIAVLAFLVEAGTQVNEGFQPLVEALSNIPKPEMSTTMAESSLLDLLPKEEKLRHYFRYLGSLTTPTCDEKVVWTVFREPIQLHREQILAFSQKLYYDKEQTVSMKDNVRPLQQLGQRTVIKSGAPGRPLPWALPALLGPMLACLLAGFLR
Conditions: filed as activator
Description: Binding affinity to human carbonic anhydrase 4 assessed as activation constant by phenol red dye based stopped-flow method
# label = yes if KA < 20000 nM else no

Known results for molecules:
Request: Answer whether the molecule `COC(=O)[C@H](Cc1c[nH]cn1)NCCCCCCNc1c2c(nc3ccccc13)CCCC2` has KA strictly less than 20000 nM
Result: yes

Request: Answer whether the molecule `N[C@@H](Cc1c[nH]cn1)C(=O)NCCCCCNc1c2c(nc3ccccc13)CCCC2` has KA strictly less than 20000 nM
Result: yes

Request: Answer whether the molecule `CC(C)(C)OC(=O)N[C@@H](Cc1c[nH]c2ccccc12)C(=O)NCCCNc1c2c(nc3ccccc13)CCCC2` has KA strictly less than 20000 nM
Result: no

Request: Answer whether the molecule `COC(=O)[C@@H](N)Cc1ccc(OCCCCCNc2c3c(nc4ccccc24)CCCC3)cc1` has KA strictly less than 20000 nM
Result: yes

Continuing:
Request: Answer whether the molecule `c1ccc2c(NCCCCCCNCCc3c[nH]cn3)c3c(nc2c1)CCCC3` has KA strictly less than 20000 nM
Result: yes

---

Molecular target: Cholinesterase (Equus caballus, UniProt P81908)
Sequence (P81908 whole entry): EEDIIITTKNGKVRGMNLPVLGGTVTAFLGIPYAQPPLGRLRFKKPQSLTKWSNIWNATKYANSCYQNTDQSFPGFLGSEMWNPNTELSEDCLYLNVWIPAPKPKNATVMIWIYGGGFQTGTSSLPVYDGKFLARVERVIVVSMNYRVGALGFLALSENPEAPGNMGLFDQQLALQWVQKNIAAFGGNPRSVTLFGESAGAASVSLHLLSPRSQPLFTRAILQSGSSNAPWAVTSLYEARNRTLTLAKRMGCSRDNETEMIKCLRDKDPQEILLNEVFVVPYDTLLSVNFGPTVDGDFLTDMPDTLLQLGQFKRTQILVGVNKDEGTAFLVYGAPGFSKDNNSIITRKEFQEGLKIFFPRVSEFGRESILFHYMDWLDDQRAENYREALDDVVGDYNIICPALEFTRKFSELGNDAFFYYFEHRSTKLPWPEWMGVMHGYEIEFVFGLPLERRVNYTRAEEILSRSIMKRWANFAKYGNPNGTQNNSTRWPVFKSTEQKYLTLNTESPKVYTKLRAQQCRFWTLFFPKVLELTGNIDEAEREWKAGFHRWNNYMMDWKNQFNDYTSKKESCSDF
assayEndpoint: pIC50
Scale for pIC50: -log10 of concentration given in mol/L; no unit attached.

Request: Can you look up pIC50 on Cholinesterase (Equus caballus, UniProt P81908) for `COC(=O)[C@H](Cc1c[nH]cn1)NCCCCCNc1c2c(nc3ccccc13)CCCC2` ?
Result: 8.36

Request: Can you look up pIC50 on Cholinesterase (Equus caballus, UniProt P81908) for `CC(C)(C)OC(=O)N[C@@H](CCCCNC(=O)OCc1ccccc1)C(=O)NCCCCNc1c2c(nc3ccccc13)CCCC2` ?
Result: 9.80

Request: Can you look up pIC50 on Cholinesterase (Equus caballus, UniProt P81908) for `CC(C)(C)OC(=O)N[C@@H](Cc1cn(C(=O)OC(C)(C)C)cn1)C(=O)NCCCNc1c2c(nc3ccccc13)CCCC2` ?
Result: 8.44

Request: Can you look up pIC50 on Cholinesterase (Equus caballus, UniProt P81908) for `CC(C)(C)OC(=O)N[C@@H](Cc1ccccc1)C(=O)NCCCCNc1c2c(nc3ccccc13)CCCC2` ?
Result: 9.42

Request: Can you look up pIC50 on Cholinesterase (Equus caballus, UniProt P81908) for `N[C@@H](Cc1ccccc1)C(=O)NCCCNc1c2c(nc3ccccc13)CCCC2` ?
Result: 9.66

Request: Can you look up pIC50 on Cholinesterase (Equus caballus, UniProt P81908) for `CC(C)(C)OC(=O)N[C@@H](Cc1cn(C(=O)OC(C)(C)C)cn1)C(=O)NCCCCCNc1c2c(nc3ccccc13)CCCC2` ?
Result: 9.24

Request: Can you look up pIC50 on Cholinesterase (Equus caballus, UniProt P81908) for `N[C@@H](CCCCNC(=O)OCc1ccccc1)C(=O)NCCCCNc1c2c(nc3ccccc13)CCCC2` ?
Result: 8.60

Continuing:
Request: Can you look up pIC50 on Cholinesterase (Equus caballus, UniProt P81908) for `N[C@@H](Cc1c[nH]c2ccccc12)C(=O)NCCCNc1c2c(nc3ccccc13)CCCC2` ?
Result: 8.80

Values compiled from ChEMBL document CHEMBL5579900.
